Listed next: entries and their corresponding inhibition of growth at 1 ppm.
Tested on: Alternaria alternate
Assay: in vitro-Test with Alternaria alternate (microtiter growth inhibition)
Format: cell-based
Conditions: Alternaria, 1.0 ppm, alone; read-out: Efficacy %
endpoint_name: inhibition of growth at 1 ppm (%)

[[record]]
compound = "OC(Cc1ccccc1Cl)(Cn1nc[nH]c1=S)C1(Cl)CC1 (stereo not shown)"
endpoint_name = "inhibition of growth at 1 ppm"
observed_result = 100

[[record]]
compound = "CON=C(C(=O)OC)c1ccccc1CON=C(C)c1cccc(C(F)(F)F)c1"
endpoint_name = "inhibition of growth at 1 ppm"
observed_result = 98

[[record]]
compound = "CC(C)(C)C(O)(CCc1ccc(Cl)cc1)Cn1cncn1 (stereo not shown)"
endpoint_name = "inhibition of growth at 1 ppm"
observed_result = 98

[[record]]
compound = "CC1COC(Cn2cncn2)(c2ccc(Oc3ccc(Cl)cc3)cc2Cl)O1 (stereo not shown)"
endpoint_name = "inhibition of growth at 1 ppm"
observed_result = 98


This collection of values is drawn from patent US20230165252A1.
